assay: Antioxidant activity assessed as inhibition of superoxide anion generation measured for 3 mins by nitro blue tetrazolium assay; format: physicochemical
quantity name: IC50

Here's what some known entries look like.
Entry `CN(C1=NC(=O)/C(=C/C(Cl)=C/c2ccc([N+](=O)[O-])cc2)S1)c1ccc(O)cc1` : reported IC50 = ?
960 nM

Entry `CCOc1cc(/C=C2\SC(Nc3nc4ccc(C)cc4s3)=NC2=O)ccc1O` : reported IC50 = ?
6800 nM

Entry `CN(C1=NC(=O)/C(=C2/C(=O)Nc3ccccc32)S1)c1ccc(O)cc1` : reported IC50 = ?
350 nM

---
Entry CC1S/C(=N/N=C/c2cccnc2)NC1=O (racemic) : reported IC50 = ?
1960 nM
